# Tested on: H1 or H9 human embryonic stem cells
# METHOD_NOTES: Activin A bioassay: differentiation of human embryonic stem cells to definitive endoderm, cell number and SOX17 intensity by high content analysis (96-well, four days);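 note: total fluorescence of the cell multiplied by cell area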
# Type: cell-based
# PARTICULARS: supernatant concentration 1x, assay dilution 1:20
Form field: Sox 17 Intensity average (one value per entry).
REPORTED_PROPERTY: Sox 17 Intensity average

[[record]]
molecule = "ACTN38: activin A variant peptide, SEQ ID 39 (protein) GLECDGKVNLCCKKQDFVSFKDIGWNDWIIAPSGYHANKCGGKCPSHIAGTSGSSLSFHSTVINHYRMRGHSPFSQLGACCVPTKLRPMSMLYYDDGQNIIKKDIQNMIVEECGCS"
recorded_number = "9.26E+04"

[[record]]
molecule = "ACTN64: activin A variant peptide, SEQ ID 65 (protein) GLECDGKVNICCKKQSFGQTKDIGWNDWIIAPSGYHGGGCSGECPSHIAGTSGSSLSFHSTVINHYRMRGHSPWANLKSCCSPTKLRPMSMLYYDDGQNIIKKDIQGMVVEECGCT"
recorded_number = "1.30E+06"

[[record]]
molecule = "ACTN75: activin A variant peptide, SEQ ID 76 (protein) GLECDGKVNICCKKQSFGQAKDIGWNDWIIAPSGYHGGGCSGECPSHIAGTSGSSLSFHSTVINHYRMRGHSPWANLKSCCSPTKLRPMSMLYYDDGQNIIKKDIQRMKVEECGCT"
recorded_number = "1.81E+05"

